Test system: IL-17A
Experiment: Human TH17 cytokine inhibition measured by ELISA: IL-17A
Type: cell-based
Details: human CD4+ T cells under TH17-polarizing conditions, 3 days, supernatant ELISA
Procedure: Human TH17 Cytokine Inhibition as Measured by ELISA Peripheral blood mononuclear cells (PBMCs) were sourced from freshly prepared leukocyte enriched plasma (buffy coat) from healthy donors (New York Blood Center). […] Supernatants were collected and stored at −20° C. until assayed for IL-17A, IL-17F and IL-21 levels by “Ready-Set-Go” ELISA kits (eBioscience) as per manufacturer's instructions. Endpoint absorbance was read at 450 nm using a microplate reader (Perkin Elmer).
measurement label: IC50

INPUT: Can you look up the measured IC50 of C[C@@H]1C[C@@H](Cn2ncc3cc(-c4cn[nH]c4)ccc32)CN1S(=O)(=O)c1ccccc1 (racemic) for me?
OUTPUT: < 10 µM
